For each record, write down the corresponding ΔTm.
Target: MAP kinase p38 (Homo sapiens) (UniProt O15264+Q15759+Q16539+P53778)
Experiment: Binding affinity to p38 (unknown origin) assessed as change in melting temperature at 1 uM by SYPRO orange dye-based DSF analysis
Assay type: protein assay
Could you give me the number in °C? Just the number is fine.

Consider the compound shown here: CCOCCCn1c(=S)[nH]c2cc(C(=O)NCC3COc4ccccc4O3)ccc2c1=O (stereo not drawn) What is its recorded ΔTm?
2

Consider the compound shown here: c1cc2[nH]c3c(c2c2nonc12)CCCC3 What is its recorded ΔTm?
2

Consider the compound shown here: CS(=O)(=O)c1ccc2nc(NC(=O)CCCOc3ccc(Cl)cc3)sc2c1 What is its recorded ΔTm?
2
